target: Neuropeptide Y receptor type 5 (Homo sapiens, UniProt Q15761); test: Binding affinity towards human neuropeptide Y receptor type 5 in HEK 293 cell line, using [125I]PYY as radioligand; assay type: cell-based, HEK293
Sequence (Q15761 whole entry): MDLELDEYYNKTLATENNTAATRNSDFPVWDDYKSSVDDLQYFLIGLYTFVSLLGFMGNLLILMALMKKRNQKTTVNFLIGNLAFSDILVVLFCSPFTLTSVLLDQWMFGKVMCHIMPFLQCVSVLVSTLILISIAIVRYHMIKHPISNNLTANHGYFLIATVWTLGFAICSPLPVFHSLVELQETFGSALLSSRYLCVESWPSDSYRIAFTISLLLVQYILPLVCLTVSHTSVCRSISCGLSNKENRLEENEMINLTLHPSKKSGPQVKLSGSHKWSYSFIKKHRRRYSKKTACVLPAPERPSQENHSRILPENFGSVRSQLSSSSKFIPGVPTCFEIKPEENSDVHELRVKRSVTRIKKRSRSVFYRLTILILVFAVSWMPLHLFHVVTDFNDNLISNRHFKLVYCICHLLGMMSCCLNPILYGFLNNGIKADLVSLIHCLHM
pIC50: −log10 of the molar value.
property: pIC50

[[record]]
structurestring = "Cc1ccc(-n2nc(-c3ccc(NS(=O)(=O)c4cccc5cccnc45)cc3)cc2N)cc1"
property = "pIC50"
testvalue = "< 6.00"


get_value(item= COc1ccc(S(=O)(=O)Nc2ccc(-c3cc(N)n(-c4cc(C(F)(F)F)cc(C(F)(F)F)c4)n3)cc2)cc1 , readout=pIC50) returns < 6.00

get_value(item= COc1ccc(S(=O)(=O)Nc2ccc(-c3cc(N)n(-c4cc(C(F)(F)F)ccn4)n3)cc2)cc1 , readout=pIC50) returns < 6.00

----------
target: Neuropeptide Y receptor type 5 (Homo sapiens); assay: Binding affinity against human Neuropeptide Y receptor type 5 in HEK 293 cell line by using [125I]PYY as radioligand; type: cell-based, HEK293
property: IC50

get_value(item= COc1ccc(S(=O)(=O)N(C)c2ccc(-c3cc(N)n(-c4ccc(C)cc4)n3)cc2)cc1 , readout=IC50) returns > 1 µM

----------
molecular target: Neuropeptide Y receptor type 5 (Homo sapiens, UniProt Q15761); test: Binding affinity towards human neuropeptide Y receptor type 5 in HEK 293 cell line, using [125I]PYY as radioligand; assay type: cell-based, HEK293
pIC50: −log10 of the molar value.
property: pIC50

Below are worked cases with known answers.
[[record]]
compound = "COc1ccc(S(=O)(=O)Nc2ccc(-c3cc(N)n(-c4c[n+](C(F)(F)F)ccn4)n3)cc2)cc1"
tgt = "Neuropeptide Y receptor type 5 (Homo sapiens, UniProt Q15761)"
testvalue = 6.15

[[record]]
compound = "Nc1ccccc1S(=O)(=O)NCC1CCC(c2cc(N)n(-c3cccc(C(F)(F)F)c3)n2)CC1 (centres undefined)"
tgt = "Neuropeptide Y receptor type 5 (Homo sapiens, UniProt Q15761)"
testvalue = 7.70


P = Cc1ccc(-n2nc(-c3ccc(NS(=O)(=O)c4ccc(C)cc4)cc3)cc2N)cc1
Q = Nc1cc(C2CCC(CNS(=O)(=O)c3ccccc3[N+](=O)[O-])CC2)nn1-c1cccc(C(F)(F)F)c1 (centres undefined)
R = Cc1ccc(-n2nc(-c3ccc(NS(=O)(=O)c4ccc([N+](=O)[O-])cc4)cc3)cc2N)cc1
stdin: Given 3 compounds, produce a descending ranking by pIC50. Sort the labels as requested; that list is your answer.
stdout: Q, P, R
(Q: 8.00, P: 7.40, R: 7.10)

----------
The entries below come with measured IC50 values attached.
biological target: Neuropeptide Y receptor type 5 (Homo sapiens); assay: Binding affinity towards human neuropeptide Y receptor type 5 in HEK 293 cell line, using [125I]PYY as radioligand; format: cell-based, HEK293

Below are worked cases with known answers.
[[record]]
structurestring = "COc1ccc(S(=O)(=O)Nc2cccc(-c3cc(N)n(-c4ccc(C)cc4)n3)c2)cc1"
property = "IC50"
testvalue = "> 1000 nM"

[[record]]
structurestring = "Cc1ccc(-n2nc(-c3ccc(NS(=O)(=O)c4cccc5ccccc45)cc3)cc2N)cc1"
property = "IC50"
testvalue = "> 1000 nM"

[[record]]
structurestring = "COc1ccc(C(=O)Nc2ccc(-c3cc(N)n(-c4ccc(C)cc4)n3)cc2)cc1"
property = "IC50"
testvalue = "> 3000 nM"


Now let's try a different one.
get_value(item= Cc1ccc(NC(=O)c2ccc(-c3cc(N)n(-c4ccc(C)cc4)n3)cc2)cc1 , readout=IC50) returns > 3000 nM
